System: BRA (mesoderm marker) in RUES2-GLR cells
assay_details: DevTox GLR-Endo assay: increase in percent BRA-positive cells (AEID 3096, Bra_up)
Format: cell-based, human
setup_conditions: tcpl plot AEID3096, maximum median response
Response field label: string, one of criterion met (MAX_MED strictly below 1 Percent Activity) or criterion not met.

**Query** Check if MAX_MED falls below 1 Percent Activity for "NNC(=O)c1ccncc1" .
**Result** criterion met

**Query** Could you please tell me whether MAX_MED recorded for "CCCC(CCC)C(=O)O" is less than 1 Percent Activity?
**Result** criterion met

**Query** Is it true that MAX_MED reported for CN(Cc1cnc2nc(N)nc(N)c2n1)c1ccc(C(=O)N[C@@H](CCC(=O)O)C(=O)O)cc1 [Methotrexate] is less than 1 Percent Activity?
**Result** criterion not met

**Query** Given "CC1=C2C[C@H]3[C@@H](CC=C4C[C@@H](O)CC[C@@]43C)[C@@H]2CC[C@]12O[C@@H]1C[C@H](C)CN[C@H]1[C@H]2C" , is recorded MAX_MED strictly lower than 1 Percent Activity?
**Result** criterion not met

**Query** Decide: MAX_MED of Nc1cccc2c1CN(C1CCC(=O)NC1=O)C2=O (stereo not drawn) [Lenalidomide] strictly below 1 Percent Activity?
**Result** criterion met

**Query** For this compound, is MAX_MED lower than 1 Percent Activity? C=CC(N)=O [Acrylamide]
**Result** criterion not met

**Query** is_below(MAX_MED, 1 Percent Activity) for CCCCC(CC)COC(=O)c1ccccc1C(=O)O (stereo not drawn) ?
**Result** criterion not met

**Query** Field: below-cutoff. Rule: recorded MAX_MED strictly less than 1 Percent Activity. Subject: "O=C(O)c1ccccc1O"
**Result** criterion met

**Query** Strictly below 1 Percent Activity: is that where MAX_MED of "CS(=O)(=O)OCCCCOS(C)(=O)=O" sits?
**Result** criterion not met

**Query** Threshold test, MAX_MED < 1 Percent Activity: "Cc1nc2sccn2c(=O)c1CCN1CCC(=C(c2ccc(F)cc2)c2ccc(F)cc2)CC1"
**Result** criterion not met

**Query** Please state whether MAX_MED is below 1 Percent Activity for "Oc1cc(O)c2c(c1)O[C@H](c1ccc(O)c(O)c1)[C@@H](O)C2"
**Result** criterion not met
